- Test system: Brain
- Assay Remarks: Drug level in po dosed DIO C57BL/6 mouse brain after 5 hrs relative to plasma concentration
- Format: ADME, organism-based
Test Readout: Drug uptake (%)

molecule="CC(C)N1CCCC(Cn2c(-c3ccc(OCCO)cc3F)nc3ccc(Oc4ccc(F)cc4)cc3c2=O)C1 (racemic)" assay_target=Brain readout_units=% bound_sign=< data_value=0.001
molecule=Cc1nc2ccc(Oc3ccc(F)cc3)cc2c(=O)n1C[C@H]1CCCN(C(C)C)C1 assay_target=Brain readout_units=% bound_sign== data_value=19
molecule="Cc1ccccc1-c1nc2ccc(Oc3ccc(F)cc3)cc2c(=O)n1C[C@H]1CCCN(C(C)C)C1 (stereo in doubt; 36)" assay_target=Brain readout_units=% bound_sign== data_value=1
molecule=CC(C)c1nc2ccc(-c3ccc(F)cc3)cc2c(=O)n1C[C@H]1CCCN(C(C)C)C1 assay_target=Brain readout_units=% bound_sign== data_value=76
molecule=CCN1CCC[C@H](Cn2c(-c3ccccc3C)nc3ccc(-c4ccc(Cl)cc4)cc3c2=O)C1 assay_target=Brain readout_units=% bound_sign== data_value=22

---

- Assay Target: Ghrelin receptor (Ovis aries)
- Sequence (Q8MHZ5 whole entry): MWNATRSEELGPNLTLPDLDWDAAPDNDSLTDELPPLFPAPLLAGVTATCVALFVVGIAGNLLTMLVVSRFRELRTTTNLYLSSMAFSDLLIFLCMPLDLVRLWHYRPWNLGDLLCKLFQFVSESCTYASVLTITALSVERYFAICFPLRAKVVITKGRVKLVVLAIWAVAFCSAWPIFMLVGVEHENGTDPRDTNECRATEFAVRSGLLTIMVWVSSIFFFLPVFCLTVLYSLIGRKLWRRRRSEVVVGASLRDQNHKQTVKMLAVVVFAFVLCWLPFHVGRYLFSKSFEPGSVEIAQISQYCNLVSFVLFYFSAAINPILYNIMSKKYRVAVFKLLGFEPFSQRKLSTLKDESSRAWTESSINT
- Assay Remarks: Displacement of [125I]ghrelin from ovine recombinant GHSR1a expressed in HEK293F cells after 6 hrs by scintillation proximity assay
// reported Ki for each item listed
Test Readout: Ki (nM)

molecule="Cc1ccccc1-c1nc2ccccc2c(=O)n1CC1CCCN(C(C)C)C1 (centres undefined)" test_readout=Ki data_value=1200
molecule=CCN1CCC[C@@H](Cn2c(-c3ccc(C(F)(F)F)cc3)nc3ccc(-c4ccc(Cl)cc4)cc3c2=O)C1 test_readout=Ki data_value=240
molecule=CC(C)N1CCC[C@H](Cn2cnc3ccc(Oc4ccc(F)cc4)cc3c2=O)C1 test_readout=Ki data_value=18
molecule="Cc1ccccc1-c1nc2ccc(-c3ccc(Cl)cc3)cc2c(=O)n1CC1CCCN(CCF)C1 (centres undefined)" test_readout=Ki data_value=16
molecule="Cc1ccccc1-c1nc2ccc(-c3ccc(Cl)cc3)cc2c(=O)n1CC1CCCNC1 (centres undefined)" test_readout=Ki data_value=7
molecule=CC(C)N1CCC[C@H](Cn2cnc3ccc(-c4ccc(Cl)cc4)cc3c2=O)C1 test_readout=Ki data_value=440
molecule=CCN1CCC[C@H](Cn2c(-c3ccc(C(F)(F)F)cc3)nc3ccc(-c4ccc(Cl)cc4)cc3c2=O)C1 test_readout=Ki data_value=16
molecule="Cc1ccccc1-c1nc2ccc(Oc3ccc(F)cc3)cc2c(=O)n1C[C@H]1CCCN(C(C)C)C1 (stereo in doubt; 36)" test_readout=Ki data_value=0.86
molecule=CCN1CCC[C@H](Cn2c(C(C)C)nc3ccc(-c4ccc(F)cc4)cc3c2=O)C1 test_readout=Ki data_value=40

---

- Assay Remarks: Cmax in Wistar rat at 10 mg/kg, po
- Assay type: ADME, organism-based
- Set-up: dose 10 mg/kg, route oral
- Recorded Conditions: in vivo
Test Readout: Cmax

compound="CCCCN(C)c1ccc2nc(-c3ccccc3OC)n(CC3CCCN(CC)C3)c(=O)c2c1 (stereo unspecified)" data_value="< 20 nM"

---

- Assay Remarks: Cmax in Wistar rat plasma at 1 mg/kg, iv
- Format: ADME, organism-based
- Design: dose 1 mg/kg, route intravenous
Test Readout: Cmax (ng/mL)

smiles_representation=Cc1nc2ccc(Oc3ccc(F)cc3)cc2c(=O)n1C[C@H]1CCCN(C(C)C)C1 test_readout=Cmax data_value=110

---

solubility overview
- Assay Remarks: Aqueous solubility at pH 7.2
- Assay type: physicochemical
Test Readout: solubility (µM)

compound=CCN1CCC[C@H](Cn2c(-c3ccccc3C)nc3ccc(-c4ccc(Cl)cc4)cc3c2=O)C1 test_readout=solubility data_value=80
compound="Cc1ccccc1-c1nc2ccc(Oc3ccc(F)cc3)cc2c(=O)n1C[C@H]1CCCN(C(C)C)C1 (stereo in doubt; 36)" test_readout=solubility data_value=250
compound=CC(C)c1nc2ccc(Oc3ccc(F)cc3)cc2c(=O)n1C[C@H]1CCCN(C(C)C)C1 test_readout=solubility data_value=100
compound=CC(C)c1nc2ccc(-c3ccc(Cl)cc3)cc2c(=O)n1C[C@H]1CCCN(C(C)C)C1 test_readout=solubility data_value=60
compound=Cc1nc2ccc(Oc3ccc(F)cc3)cc2c(=O)n1C[C@H]1CCCN(C(C)C)C1 test_readout=solubility data_value=500
compound=CC(C)N1CCC[C@H](Cn2cnc3ccc(Oc4ccc(F)cc4)cc3c2=O)C1 test_readout=solubility data_value=450
compound=CC(C)c1nc2ccc(-c3ccc(F)cc3)cc2c(=O)n1C[C@H]1CCCN(C(C)C)C1 test_readout=solubility data_value=280
compound=Cc1nc2ccc(-c3ccc(Cl)cc3)cc2c(=O)n1C[C@H]1CCCN(C(C)C)C1 test_readout=solubility data_value=125

---

- Assay Remarks: Cmax in Wistar rat plasma at 3 mg/kg, po
- Type: ADME, organism-based
- Parameters: dose 3 mg/kg, route oral
Documented Cmax across a set of molecules
Test Readout: Cmax (ng/mL)

smiles_representation=Cc1nc2ccc(Oc3ccc(F)cc3)cc2c(=O)n1C[C@H]1CCCN(C(C)C)C1 test_readout=Cmax readout_units=ng/mL data_value=80
smiles_representation=CC(C)c1nc2ccc(-c3ccc(F)cc3)cc2c(=O)n1C[C@H]1CCCN(C(C)C)C1 test_readout=Cmax readout_units=ng/mL data_value=70

---

Entries annotated with measured E/Emax
- Assay Target: Growth hormone secretagogue receptor type 1 (Homo sapiens, UniProt Q92847)
- Sequence (Q92847 whole entry): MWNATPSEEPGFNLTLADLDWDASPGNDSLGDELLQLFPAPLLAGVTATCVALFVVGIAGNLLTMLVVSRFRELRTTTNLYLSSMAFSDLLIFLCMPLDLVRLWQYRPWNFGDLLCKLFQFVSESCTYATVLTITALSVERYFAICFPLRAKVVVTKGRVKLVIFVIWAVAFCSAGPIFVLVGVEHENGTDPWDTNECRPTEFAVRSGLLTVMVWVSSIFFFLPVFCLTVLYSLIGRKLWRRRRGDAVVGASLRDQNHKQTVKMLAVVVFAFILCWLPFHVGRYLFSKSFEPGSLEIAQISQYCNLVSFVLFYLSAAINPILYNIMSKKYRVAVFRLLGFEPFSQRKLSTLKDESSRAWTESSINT
- Assay Remarks: Agonist activity at human recombinant GHSR1a expressed in HEK293F cells assessed as stimulation of [35S]GTP-gamma-S binding relative to ghrelin
- Format: functional, cell-based
Test Readout: E/Emax (%)

molecule=CC(C)c1nc2ccc(Oc3ccc(F)cc3)cc2c(=O)n1C[C@H]1CCCN(C(C)C)C1 data_value=-5
molecule=CCN1CCC[C@H](Cn2c(-c3ccccc3C)nc3ccc(-c4ccc(Cl)cc4)cc3c2=O)C1 data_value=0
molecule=CC(C)c1nc2ccc(-c3ccc(Cl)cc3)cc2c(=O)n1C[C@H]1CCCN(C(C)C)C1 data_value=0
molecule=Cc1nc2ccc(-c3ccc(Cl)cc3)cc2c(=O)n1C[C@H]1CCCN(C(C)C)C1 data_value=0
molecule="COCCN1CCCC(Cn2c(-c3ccccc3C)nc3ccc(-c4ccc(Cl)cc4)cc3c2=O)C1 (stereo not drawn)" data_value=-20
molecule=Cc1nc2ccc(Oc3ccc(F)cc3)cc2c(=O)n1C[C@H]1CCCN(C(C)C)C1 data_value=11
molecule="Cc1ccccc1-c1nc2ccc(-c3ccc(Cl)cc3)cc2c(=O)n1CC1CCCN(CCF)C1 (stereo not drawn)" data_value=-9
molecule="Cc1ccccc1-c1nc2ccc(Oc3ccc(F)cc3)cc2c(=O)n1C[C@H]1CCCN(C(C)C)C1 (stereo in doubt; 36)" data_value=22
molecule=CC(C)N1CCC[C@H](Cn2cnc3ccc(Oc4ccc(F)cc4)cc3c2=O)C1 data_value=2
molecule="Cc1ccccc1-c1nc2ccc(Oc3ccc(F)cc3)cc2c(=O)n1CC1CCCN(C(C)C)C1 (stereo not drawn)" data_value=23
molecule="Cc1ccccc1-c1nc2ccc(-c3ccc(Cl)cc3)cc2c(=O)n1CC1CCCN(C2CCC2)C1 (stereo not drawn)" data_value=-20
molecule=CC(C)c1nc2ccc(-c3ccc(F)cc3)cc2c(=O)n1C[C@H]1CCCN(C(C)C)C1 data_value=15
molecule=CCN1CCC=C(Cn2c(-c3ccccc3C)nc3ccc(-c4ccc(Cl)cc4)cc3c2=O)C1 data_value=-18
molecule="Cc1ccccc1-c1nc2ccc(Oc3ccc(F)cc3)cc2c(=O)n1CC1CCCNC1 (stereo not drawn)" data_value=92
molecule=CCN1CCC[C@@H](Cn2c(-c3ccccc3C)nc3ccc(-c4ccc(Cl)cc4)cc3c2=O)C1 data_value=10
molecule="CCN1CCCC(Cn2c(-c3ccccc3C)nc3ccc(OC(F)(F)F)cc3c2=O)C1 (stereo not drawn)" data_value=4
molecule="Cc1ccccc1-c1nc2ccc(-c3ccc(Cl)cc3)cc2c(=O)n1CC1CCCNC1 (stereo not drawn)" data_value=12
molecule="CCN1CCCC(Cn2c(-c3ccccc3C)nc3ccc(-c4ccc(Cl)cc4)cc3c2=O)C1 (stereo not drawn)" data_value=12

---

pKi: −log10 of the molar value.
// values below are pKi; system is 5-hydroxytryptamine receptor 2C (Homo sapiens)
Sequence (P28335 whole entry): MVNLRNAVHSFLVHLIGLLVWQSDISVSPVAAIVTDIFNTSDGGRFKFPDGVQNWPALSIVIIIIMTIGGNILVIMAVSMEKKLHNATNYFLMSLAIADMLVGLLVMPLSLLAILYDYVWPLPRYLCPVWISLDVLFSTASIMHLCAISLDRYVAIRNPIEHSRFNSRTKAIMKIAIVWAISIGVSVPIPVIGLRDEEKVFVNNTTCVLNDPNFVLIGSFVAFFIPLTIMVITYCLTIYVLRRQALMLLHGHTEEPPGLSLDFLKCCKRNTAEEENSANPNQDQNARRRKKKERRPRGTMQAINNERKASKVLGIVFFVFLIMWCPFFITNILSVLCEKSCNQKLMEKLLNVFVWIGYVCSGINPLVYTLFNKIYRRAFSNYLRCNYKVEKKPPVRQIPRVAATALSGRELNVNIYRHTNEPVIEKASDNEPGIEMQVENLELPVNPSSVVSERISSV
Test Readout: pKi

smiles_representation=CC(C)c1nc2ccc(-c3ccc(F)cc3)cc2c(=O)n1C[C@H]1CCCN(C(C)C)C1 test_readout=pKi data_value="< 6.00"
smiles_representation=CC(C)c1nc2ccc(-c3ccc(Cl)cc3)cc2c(=O)n1C[C@H]1CCCN(C(C)C)C1 test_readout=pKi data_value="< 6.00"
smiles_representation=Cc1nc2ccc(Oc3ccc(F)cc3)cc2c(=O)n1C[C@H]1CCCN(C(C)C)C1 test_readout=pKi data_value="< 6.00"
smiles_representation=CCN1CCC[C@H](Cn2c(-c3ccccc3C)nc3ccc(-c4ccc(Cl)cc4)cc3c2=O)C1 test_readout=pKi data_value=6.92
smiles_representation=CC(C)c1nc2ccc(Oc3ccc(F)cc3)cc2c(=O)n1C[C@H]1CCCN(C(C)C)C1 test_readout=pKi data_value="< 6.00"
smiles_representation=CC(C)N1CCC[C@H](Cn2cnc3ccc(Oc4ccc(F)cc4)cc3c2=O)C1 test_readout=pKi data_value="< 6.00"
